test protocol: Pharmacokinetic parameters following oral administration in rats
Type: in vivo, male Wistar rats
settings: male, Wistar, rat, plasma, read-out: MRT
observation type: MRT (h)
Return type: number; implicit unit h.

Could you tell me which MRT is on file for O=C(O)c1cnn(C2CCCN(c3cc(Cl)ccc3-c3ccc(N4CCN(CC(F)F)CC4)cc3)C2)c1C(F)F (single isomer, unassigned; enantiomer 2) [Example 19] ?
7.46

====

assay target: recombinant guanylate cyclase reporter cell line (Rattus norvegicus)
Construct: expressed in transfected cells
test protocol: Effect on a recombinant guanylate cyclase reporter cell line
Format: cell-based
settings: minimum effective concentration
observation type: log10 of MEC (log10 of the value in nM)
Please interpret these as log10 of MEC where MEC is in nM.

What is its log10 of MEC for recombinant guanylate cyclase reporter cell line (Rattus norvegicus)? Entry: O=C(O)c1cnn(C2CCCN(c3cc(Cl)ccc3-c3ccc(N4CCN(CC5CC5F)CC4)cc3)C2)c1C(F)F (single isomer, unassigned; diastereomer 3) [Example 33]
-0.52

Same question, O=C(O)c1cnn(C2CCCN(c3cc(Cl)ccc3-c3ccc(N4CCN(CC(F)(F)F)CC4)cc3)C2)c1C(F)F (single isomer, unassigned; enantiomer 1) [Example 20] this time
0.20

Same question, O=C(O)c1cnn(C2CCCN(c3cc(Cl)ccc3-c3cnc(N4CCN(CC5CC5)CC4)nc3)C2)c1C(F)F (single isomer, unassigned; enantiomer 2) [Example 72] this time
0.48

Same question, O=C(O)c1cnn(C2CCCN(c3cc(Cl)ccc3-c3ccc(N4CCCC4)cc3)C2)c1C(F)F (single isomer, unassigned; enantiomer 1) [Example 44] this time
1.00

Same question, N#CCCN1CCN(c2ccc(-c3ccc(Cl)cc3N3CCCC(n4ncc(C(=O)O)c4C(F)F)C3)cc2)CC1 (single isomer, unassigned; enantiomer 2) [Example 46] this time
-0.52

Same question, O=C(O)c1cnn(C2CCCN(c3cc(Cl)ccc3-c3ccc(N4CCN(CC5CC5C(F)(F)F)CC4)cc3)C2)c1C(F)F (mixture of isomers) [Example 38] this time
0.00

====

Kindly state EC50 for each of the entries shown.
assay target: recombinant guanylate cyclase reporter cell line (Rattus norvegicus, UniProt P20595)
Sequence (P20595 1-619): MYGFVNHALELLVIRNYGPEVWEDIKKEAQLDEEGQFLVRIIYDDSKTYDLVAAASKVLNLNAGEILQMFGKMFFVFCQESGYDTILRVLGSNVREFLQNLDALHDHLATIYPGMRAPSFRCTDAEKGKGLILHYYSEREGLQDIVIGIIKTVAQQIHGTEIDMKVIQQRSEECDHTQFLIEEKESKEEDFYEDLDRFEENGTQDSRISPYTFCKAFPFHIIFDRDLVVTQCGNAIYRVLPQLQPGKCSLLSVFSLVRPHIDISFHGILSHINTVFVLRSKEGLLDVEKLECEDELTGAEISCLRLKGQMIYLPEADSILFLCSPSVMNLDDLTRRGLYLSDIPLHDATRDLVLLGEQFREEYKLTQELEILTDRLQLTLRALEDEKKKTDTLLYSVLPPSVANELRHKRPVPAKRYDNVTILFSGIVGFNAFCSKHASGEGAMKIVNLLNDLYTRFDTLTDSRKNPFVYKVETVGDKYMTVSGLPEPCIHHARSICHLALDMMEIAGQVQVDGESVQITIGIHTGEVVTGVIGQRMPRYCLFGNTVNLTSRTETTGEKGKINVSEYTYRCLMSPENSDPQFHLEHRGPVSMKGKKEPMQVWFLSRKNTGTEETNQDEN
Sequence (P19686 1-690 partner): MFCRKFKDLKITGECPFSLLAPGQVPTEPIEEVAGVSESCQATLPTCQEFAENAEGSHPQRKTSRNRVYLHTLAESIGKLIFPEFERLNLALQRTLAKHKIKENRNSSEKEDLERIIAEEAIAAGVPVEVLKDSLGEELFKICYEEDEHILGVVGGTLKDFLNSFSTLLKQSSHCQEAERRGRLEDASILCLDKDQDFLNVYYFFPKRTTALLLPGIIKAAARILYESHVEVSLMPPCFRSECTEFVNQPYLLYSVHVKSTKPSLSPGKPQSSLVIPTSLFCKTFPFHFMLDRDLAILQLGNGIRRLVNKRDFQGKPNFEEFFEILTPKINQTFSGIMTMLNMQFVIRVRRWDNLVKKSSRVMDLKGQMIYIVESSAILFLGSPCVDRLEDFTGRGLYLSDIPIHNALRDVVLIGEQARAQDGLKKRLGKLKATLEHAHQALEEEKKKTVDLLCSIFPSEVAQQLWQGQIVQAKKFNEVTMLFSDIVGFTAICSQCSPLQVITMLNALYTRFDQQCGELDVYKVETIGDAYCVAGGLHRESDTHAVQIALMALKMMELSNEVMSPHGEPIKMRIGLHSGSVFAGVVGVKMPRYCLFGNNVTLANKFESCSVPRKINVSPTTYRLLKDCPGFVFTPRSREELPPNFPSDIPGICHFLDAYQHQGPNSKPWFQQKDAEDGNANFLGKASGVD
test protocol: Effect on a recombinant guanylate cyclase reporter cell line
settings: half maximal effective concentration
Return type: number; implicit unit nM.

Could you tell me which EC50 is on file for CN1CCN(c2ccc(-c3ccc(Cl)cc3N3CCCC(n4ncc(C(=O)O)c4C(F)F)C3)cc2)CC1 (single isomer, unassigned; enantiomer 1) [Example 1] ?
96.5

Same question, CC(C)CC(=O)N1CCN(c2ccc(-c3ccc(Cl)cc3N3CCCC(n4ncc(C(=O)O)c4C(F)F)C3)cc2)CC1 (single isomer, unassigned; enantiomer 2) this time
28.4

Same question, O=C(O)c1cnn(C2CCCN(c3cc(Cl)ccc3-c3ccc(N4CCN(CCC(F)F)CC4)cc3)C2)c1C(F)F (single isomer, unassigned; enantiomer 2) this time
1

Same question, O=C(O)c1cnn(C2CCCN(c3cc(Cl)ccc3-c3ccc(N4CCN(CC5CC5F)CC4)cc3)C2)c1C(F)F (single isomer, unassigned; diastereomer 3) [Example 33] this time
4.1
